All values here come from patent US20240252688A1.

# Test system: A549-Dual cells
# Method description: Single-point kinase inhibitor library screen: nLuc expression from NP-1+mRNA-nLuc in IFN-treated cells
# Format: cell-based, human
# Conditions: Homo sapiens, compound 50 μM pre-treatment, NP-1+mRNA 20 ng/well + IFN, read-out: fold nLuc over RNA + IFN
Where a name gives a salt, the structure may show the parent alone.
Give measured fold induction at 50 µM for each item. Keep answers brief.
Give bare numbers.

Worked cases, fold induction at 50 µM given:
{"Compound": "CN1CC[C@H](c2c(O)cc(O)c3c(=O)cc(-c4ccc(C(F)(F)F)cc4Cl)oc23)[C@H]1CO [(2S,3R)-Voruciclib (hydrochloride)]", "fold induction at 50 µM": 113}
{"Compound": "Cc1cc(O)c(-c2ccc([C@@H](C)CN)cc2)c2c1[nH]c(=O)c1sccc12 [OTS514]", "fold induction at 50 µM": 349}
{"Compound": "Cc1ncc(-c2ccnc(Nc3ccc(S(C)(=O)=O)cc3)n2)n1C(C)C [AZD-5438]", "fold induction at 50 µM": 353}
{"Compound": "COc1ccc(F)cc1-c1cc(NC(=O)[C@@H]2CCCNC2)ncc1Cl [CDK-IN-2]", "fold induction at 50 µM": 157}
{"Compound": "COCCOc1ccc(-c2cn(-c3ccccc3)c3nc[nH]c(=O)c23)cc1 [DMX-5804]", "fold induction at 50 µM": 267}

Would you be so kind as to report fold induction at 50 µM for each listed record?
1. Oc1cccc(Nc2ncc(F)c(Nc3cccc(O)c3)n2)c1 [Compound R112]
2. Cn1nccc1Nc1nccc(-c2ccn([C@H](CO)c3ccc(Cl)c(F)c3)c(=O)c2)n1 [Ravoxertinib hydrochloride]
3. C[C@@]1(O)CCC[C@H]1n1c(=O)c(C(F)F)cc2cnc(NC3CCN(S(C)(=O)=O)CC3)nc21 [PF-06873600]
4. C[C@@H](Oc1ccc2[nH]nc(/C=C/c3cnn(CCO)c3)c2c1)c1c(Cl)cncc1Cl [LY2874455]
5. CC[C@H](CO)Nc1nc(NCc2ccccc2)c2ncn(C(C)C)c2n1 [Seliciclib]
6. Cc1cnc(-c2cnc(NCCNc3ccc(C#N)cn3)nc2-c2ccc(Cl)cc2Cl)[nH]1 [CHIR-99021 (monohydrochloride)]
7. Cc1cc(F)c(C(=O)Nc2cccc(-c3nncn3C(C)C)n2)cc1-n1cnc(C2CC2)c1 [Selonsertib]
8. CN(c1ccc(NC(=O)Nc2ccc(OC(F)(F)F)cc2)cc1)c1ccnc(Nc2cccc(S(N)(=O)=O)c2)n1 [GW806742X (hydrochloride)]

## Output
1. 521
2. 162
3. 120
4. 150
5. 118
6. 116
7. 112
8. 842
